B1: r16_88_TrROS_Hall (parent)
chain: EVIELKIKFKTPEQREKLKEIAKKLNAEVVEEKDGEVIIRFKTPEQAERALKEAEKLGAEVEL

# Variants of: B1
# assay_notes: folding stability dG (cDNA display proteolysis); higher = more stable
# details: PBS, room temperature
endpoint_name: folding stability dG (kcal/mol)
Numeric answer only, unit kcal/mol assumed.

Answered examples (3):
variant_string: G58V
folding stability dG [kcal/mol]: 4.21

variant_string: K10R
folding stability dG [kcal/mol]: 4.47

variant_string: K6M
folding stability dG [kcal/mol]: 4.43

Next:
In plain terms, E53Q has a documented folding stability dG of 4.42
